- Target system: Adenosine receptor A2b (Homo sapiens, UniProt P29275)
- Sequence (P29275 whole entry): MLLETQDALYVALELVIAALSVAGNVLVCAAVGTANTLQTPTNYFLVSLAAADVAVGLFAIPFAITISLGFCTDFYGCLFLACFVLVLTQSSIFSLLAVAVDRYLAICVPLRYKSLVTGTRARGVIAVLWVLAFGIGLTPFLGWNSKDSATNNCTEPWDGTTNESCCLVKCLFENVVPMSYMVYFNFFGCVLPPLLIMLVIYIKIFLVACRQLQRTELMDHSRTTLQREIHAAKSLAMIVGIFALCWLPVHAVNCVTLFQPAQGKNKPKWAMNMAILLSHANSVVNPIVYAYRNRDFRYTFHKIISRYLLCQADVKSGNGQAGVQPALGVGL
Recorded metric: Ki (nM)
Reply with just the number (in nM).

Notebook: pull reported Ki for Adenosine receptor A2b (Homo sapiens, UniProt P29275), entry `N=C1c2c(C(N)=O)nc(-c3ccccc3O)n2CN1c1ccc(O)cc1`
1580

###

- Target system: Alpha-2A adrenergic receptor (Homo sapiens) (UniProt P08913)
- Sequence (P08913 whole entry): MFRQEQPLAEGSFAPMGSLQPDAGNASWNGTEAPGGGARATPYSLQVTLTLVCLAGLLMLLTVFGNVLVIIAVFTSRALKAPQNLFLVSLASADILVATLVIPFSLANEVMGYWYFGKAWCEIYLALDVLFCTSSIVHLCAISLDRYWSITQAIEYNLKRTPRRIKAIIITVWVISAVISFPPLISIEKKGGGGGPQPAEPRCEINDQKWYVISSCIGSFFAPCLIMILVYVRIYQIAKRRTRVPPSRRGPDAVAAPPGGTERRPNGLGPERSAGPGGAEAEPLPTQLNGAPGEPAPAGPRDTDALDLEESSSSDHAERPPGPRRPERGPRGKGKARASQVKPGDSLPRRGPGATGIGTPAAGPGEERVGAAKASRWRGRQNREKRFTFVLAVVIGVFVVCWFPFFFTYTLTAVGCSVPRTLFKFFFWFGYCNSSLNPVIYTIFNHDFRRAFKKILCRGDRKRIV
- Assay name: Displacement of [3H]MK912 from human adrenergic alpha2A receptor expressed in CHO cells at 10 uM after 30 mins by beta scintillation counting
- Format: cell-based
Activity for assorted compounds
Kindly report the value followed by its unit.

Look up Activity: `N=C1c2c(C(N)=O)nc(-c3ccccc3O)n2CN1c1ccc(O)cc1`
28%

Bench note: what Activity did `Cc1ccc(-c2nc(C(=O)Nc3ccccn3)c3n2CCCCC3)cc1` show?
12%

Fill in: Activity of `C=CCOc1cccc(-c2nc(O)c3c4ccccc4c(=O)n(CC)n23)c1` is ___
14%

# Activity lookup, item `Cc1ccc(-c2ncc3[nH]c(=O)n(Cc4ccccc4)c3n2)cc1`
18%

###

Attribute: inhibition
- Target system: Adenosine receptor A1 (Homo sapiens) (UniProt P30542)
- Sequence (P30542 whole entry): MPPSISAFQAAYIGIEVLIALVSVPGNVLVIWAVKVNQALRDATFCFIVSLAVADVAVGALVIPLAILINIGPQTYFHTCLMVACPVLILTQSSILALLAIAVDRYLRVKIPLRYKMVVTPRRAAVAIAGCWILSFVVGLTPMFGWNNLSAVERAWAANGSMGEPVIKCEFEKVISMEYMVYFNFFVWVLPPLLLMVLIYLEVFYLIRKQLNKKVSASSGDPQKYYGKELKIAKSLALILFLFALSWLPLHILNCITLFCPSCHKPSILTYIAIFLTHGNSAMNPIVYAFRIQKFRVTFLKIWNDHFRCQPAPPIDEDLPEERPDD
- Assay name: Displacement of [3H]DPCPX from human adenosine A1 receptor expressed in CHO cells at 10 uM after 60 mins by beta scintillation counting
- Assay type: cell-based
Your answer is read as %, so omit the unit and give the number.

O=C(/N=C1\c2ccccc2CN1c1ncccn1)Nc1ccccc1
38.5
OC1=NCC2C(C=NN2Cc2ccccc2)C(c2ccc(Br)cc2)S1 (centres undefined)
18.8
N=C1c2c(C(N)=O)nc(-c3ccccc3O)n2CN1c1ccc(O)cc1
26.8
NC(=O)c1nc(-c2cccc(O)c2)nc2c1ncn2-c1ccccc1
25.5
C=CCOc1cccc(-c2nc(O)c3c4ccccc4c(=O)n(CC)n23)c1
87.3
O=C(Nc1ccco1)c1nc2nc(-c3cccs3)cc(C(F)(F)F)c2s1
60.7

Field request: inhibition | item: `CCO/C=N/c1c(C#N)ncn1Cc1ccccc1`
9.8

Given `NC(=O)c1nc(-c2ccccc2O)nc2c1ncn2Cc1ccccc1` , state its recorded inhibition.
11.1

// returns reported inhibition for input `N#Cc1ccc(-c2nc(N3CCCCC3)c3ncn(-c4ccc(F)cc4)c3n2)cc1`
0.8

inhibition for `COc1ccc(-c2nc(N3CCOCC3)c3ncn(-c4ccc(F)cc4)c3n2)cc1` ?
18.8

May I ask what inhibition has been recorded for `Cc1ccc(-n2cnc3c(N4CCOCC4)nc(-c4ccc(C#N)cc4)nc32)cc1` ?
7.6

Would you mind telling me what inhibition value was observed for CN1N=C(C(=O)Nc2ccc(Cl)cn2)C2COc3ccccc3C21 (centres undefined) ?
8

If you can, please state the reported inhibition value of `Cc1ccc(-c2ncc3[nH]c(=O)n(Cc4ccccc4)c3n2)cc1` .
37.5

# query: inhibition of entry `Cc1ccc(-n2cnc3c(N4CCSCC4)nc(-c4ccc(C#N)cc4)nc32)cc1`
6.8

###

- Target system: Adenosine receptor A2a (Homo sapiens, UniProt P29274)
- Sequence (P29274 whole entry): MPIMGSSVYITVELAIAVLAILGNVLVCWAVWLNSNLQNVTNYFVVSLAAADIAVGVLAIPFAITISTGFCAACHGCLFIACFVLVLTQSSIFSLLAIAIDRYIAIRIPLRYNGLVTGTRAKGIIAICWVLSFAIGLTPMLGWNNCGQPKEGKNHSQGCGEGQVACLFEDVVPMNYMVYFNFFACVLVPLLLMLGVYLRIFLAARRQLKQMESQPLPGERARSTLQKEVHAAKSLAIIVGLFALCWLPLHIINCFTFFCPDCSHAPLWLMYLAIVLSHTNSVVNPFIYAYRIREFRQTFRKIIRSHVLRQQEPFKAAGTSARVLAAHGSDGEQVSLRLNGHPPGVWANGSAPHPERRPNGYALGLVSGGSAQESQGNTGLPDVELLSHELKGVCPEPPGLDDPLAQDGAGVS
- Assay name: Displacement of [3H]ZM241385 from human adenosine A2A receptor expressed in human HeLa cells at 10 uM after 30 mins by beta scintillation counting
- Format: cell-based
Classify by measured inhibition: yes if it is equal to or exceeds 7%, no if it is smaller.

N#Cc1ccc(-c2nc(N3CCCCC3)c3ncn(-c4ccc(F)cc4)c3n2)cc1
no
Cc1ccc(-n2cnc3c(N4CCSCC4)nc(-c4ccc(C#N)cc4)nc32)cc1
yes
NC(=O)c1nc(-c2cccc(O)c2)nc2c1ncn2-c1ccccc1
no

Test whether the molecule CN1N=C(C(=O)Nc2ccc(Cl)cn2)C2COc3ccccc3C21 (stereo unspecified) records inhibition of 7% or higher.
yes

Has `Cc1ccc(-c2ncc3[nH]c(=O)n(Cc4ccccc4)c3n2)cc1` a recorded inhibition greater than or equal to 7%?
yes

Given `O=C(/N=C1\c2ccccc2CN1c1ncccn1)Nc1ccccc1` , state whether its inhibition is at least 7%.
no
